Attribution: patent EP4122499A1

# Experimental system: Recombinant mouse FAP (Mus musculus)
# Construct: purchased R&D systems 8647-SE
# Sequence (P97321 whole entry): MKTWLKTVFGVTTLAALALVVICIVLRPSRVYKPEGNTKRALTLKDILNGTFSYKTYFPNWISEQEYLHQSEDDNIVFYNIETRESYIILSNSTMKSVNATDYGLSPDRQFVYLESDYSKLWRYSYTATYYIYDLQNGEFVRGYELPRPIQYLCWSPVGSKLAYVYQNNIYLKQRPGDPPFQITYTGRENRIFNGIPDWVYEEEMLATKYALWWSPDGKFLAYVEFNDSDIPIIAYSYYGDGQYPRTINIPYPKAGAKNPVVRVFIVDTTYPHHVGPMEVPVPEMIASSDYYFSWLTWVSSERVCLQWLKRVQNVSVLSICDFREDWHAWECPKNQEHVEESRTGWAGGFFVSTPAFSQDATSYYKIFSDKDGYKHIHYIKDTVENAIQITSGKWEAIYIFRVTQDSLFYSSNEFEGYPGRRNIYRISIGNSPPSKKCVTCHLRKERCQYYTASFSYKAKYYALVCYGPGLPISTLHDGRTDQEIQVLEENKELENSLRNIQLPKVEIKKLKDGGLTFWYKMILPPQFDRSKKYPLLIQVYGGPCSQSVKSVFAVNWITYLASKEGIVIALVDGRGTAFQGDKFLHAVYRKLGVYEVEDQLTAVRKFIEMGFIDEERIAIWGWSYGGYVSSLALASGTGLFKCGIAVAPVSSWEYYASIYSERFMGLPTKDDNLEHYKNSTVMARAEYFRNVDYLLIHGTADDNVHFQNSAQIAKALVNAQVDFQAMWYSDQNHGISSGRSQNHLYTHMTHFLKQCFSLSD
# Method notes: FRET-based FAP protease activity assay (mouse)
# Format: biochemical
# Conditions: FRET-peptide substrate, 37°C
Experimental readout: pIC50 (mouseFAP)
Kindly provide the number alone.

[
  {
    "Compound": "O=C(O)CN1CCN(CC(=O)O)CCN(CC(=O)N2CCN(CCCOc3ccc4nccc(C(=O)NCC(=O)N5C[C@@H](F)C[C@H]5C(=O)c5nc6ccccc6o5)c4c3)CC2)CCN(CC(=O)O)CC1 [drawing 358]",
    "pIC50 (mouseFAP)": 8.5
  },
  {
    "Compound": "O=C(O)CN1CCN(CC(=O)O)CCN(CC(=O)NCCCNC(=O)c2ccc(-c3ccc4nccc(C(=O)NCC(=O)N5CCC[C@H]5B(O)O)c4c3)cc2)CCN(CC(=O)O)CC1",
    "pIC50 (mouseFAP)": 8.5
  },
  {
    "Compound": "O=C(O)CN1CCN(CC(=O)O)CCN(CC(=O)N2CCN(CCNC(=O)c3cccc(-c4ccc5nccc(C(=O)NCC(=O)N6CCC[C@H]6C(=O)c6nc7ccccc7o6)c5c4)c3)CC2)CCN(CC(=O)O)CC1 [drawing 353]",
    "pIC50 (mouseFAP)": 8.6
  },
  {
    "Compound": "CN(CCCN1CCN(C(=O)CN2CCN(CC(=O)O)CCN(CC(=O)O)CCN(CC(=O)O)CC2)CC1)c1ccc2nccc(C(=O)NCC(=O)N3CC(F)(F)C[C@H]3C#N)c2c1",
    "pIC50 (mouseFAP)": 8.6
  }
]

From here, focus on the item given below.
If you can, please state the reported pIC50 (mouseFAP) value of N#C[C@@H]1CCCN1C(=O)CNC(=O)c1ccnc2ccc(-c3ccc(C(=O)NCCCNC(=O)CN4CCN(CC(=O)O)CCN(CC(=O)O)CCN(CC(=O)O)CC4)cc3)cc12 .
9

---

# Experimental system: Human recombinant FAP (Homo sapiens, UniProt Q12884)
# Method notes: Surface plasmon resonance assay (Biacore T200, single cycle kinetics)
# Assay type: binding
# Conditions: SPR, half-life, 25°C
# Procedure: Surface plasmon resonance studies were performed using a Biacore™ T200 SPR system (Cytiva, formerly GE Healthcare). Briefly, polarized light is directed towards a gold-labeled sensor surface, and minimum intensity reflected light is detected. The angle of reflected light changes as molecules bind and dissociate. […] Test compounds are contacted with the loaded surface, and a real-time interaction profile with the FAP ligand is recorded in a sensorgram. […]
Experimental readout: HL [min] (Biacore)

Observe how each entry below is paired with its result.
[
  {
    "Compound": "O=C(NCC(=O)N1CCC[C@H]1C(=O)c1nccs1)c1ccnc2ccccc12",
    "HL [min] (Biacore)": "0.3 min"
  },
  {
    "Compound": "O=C(O)CN1CCN(CC(=O)O)CCN(CC(=O)N2CCN(CCNC(=O)c3cccc(-c4ccc5c(C(=O)NCC(=O)N6CCC[C@H]6C(=O)c6nc7ccccc7o6)ccnc5c4)c3)CC2)CCN(CC(=O)O)CC1 [drawing 352]",
    "HL [min] (Biacore)": ">500 min"
  }
]

From here, focus on the item given below.
If you can, please state the reported HL [min] (Biacore) value of N#C[C@@H]1CC(F)(F)CN1C(=O)CNC(=O)c1ccnc2ccc(-c3ccc(C(=O)NCCCNC(=O)CN4CCN(CC(=O)O)CCN(CC(=O)O)CCN(CC(=O)O)CC4)nc3)cc12 .
>500 min

---

# Experimental system: FAP-expressing human WI-38 fibroblasts (Homo sapiens, UniProt Q12884)
# Construct: FAP-expressing human WI-38 fibroblasts (ECACC 90020107) were cultured in EMEM; host or cells: WI-38 human fibroblasts
# Method notes: Competitive FACS binding assay (displacement of Cy5-labeled FAP inhibitor 3BP-2935)
# Conditions: 3 nM Cy5-labeled 3BP-2935, 4°C, 1 hour
Below, each entry is listed alongside its reported IC50.
Give just the number in nM; leave the unit off.

Observe how each entry below is paired with its result.
[
  {
    "Molecule": "O=C(NCC(=O)N1CCC[C@H]1C(=O)c1ncco1)c1ccnc2ccccc12 [drawing 297]",
    "Unit string": "nM",
    "IC50": 12.6
  },
  {
    "Molecule": "CS(=O)(=O)c1ccc(-c2ccc3nccc(C(=O)NCC(=O)N4C[C@@H](F)C[C@H]4C#N)c3c2)cc1",
    "Unit string": "nM",
    "IC50": 1.58
  },
  {
    "Molecule": "N#C[C@@H]1CC(F)(F)CN1C(=O)CNC(=O)c1ccnc2c(OCC3CC3)cccc12",
    "Unit string": "nM",
    "IC50": 15.8
  }
]

If you can, please state the reported IC50 value of CS(=O)(=O)c1ccc(-c2ccc3nccc(C(=O)NCC(=O)N4CC(F)(F)C[C@H]4C#N)c3c2)c(CO)c1 .
2

---

# Experimental system: Human recombinant FAP (Homo sapiens, UniProt Q12884)
# Sequence (Q12884 1-760): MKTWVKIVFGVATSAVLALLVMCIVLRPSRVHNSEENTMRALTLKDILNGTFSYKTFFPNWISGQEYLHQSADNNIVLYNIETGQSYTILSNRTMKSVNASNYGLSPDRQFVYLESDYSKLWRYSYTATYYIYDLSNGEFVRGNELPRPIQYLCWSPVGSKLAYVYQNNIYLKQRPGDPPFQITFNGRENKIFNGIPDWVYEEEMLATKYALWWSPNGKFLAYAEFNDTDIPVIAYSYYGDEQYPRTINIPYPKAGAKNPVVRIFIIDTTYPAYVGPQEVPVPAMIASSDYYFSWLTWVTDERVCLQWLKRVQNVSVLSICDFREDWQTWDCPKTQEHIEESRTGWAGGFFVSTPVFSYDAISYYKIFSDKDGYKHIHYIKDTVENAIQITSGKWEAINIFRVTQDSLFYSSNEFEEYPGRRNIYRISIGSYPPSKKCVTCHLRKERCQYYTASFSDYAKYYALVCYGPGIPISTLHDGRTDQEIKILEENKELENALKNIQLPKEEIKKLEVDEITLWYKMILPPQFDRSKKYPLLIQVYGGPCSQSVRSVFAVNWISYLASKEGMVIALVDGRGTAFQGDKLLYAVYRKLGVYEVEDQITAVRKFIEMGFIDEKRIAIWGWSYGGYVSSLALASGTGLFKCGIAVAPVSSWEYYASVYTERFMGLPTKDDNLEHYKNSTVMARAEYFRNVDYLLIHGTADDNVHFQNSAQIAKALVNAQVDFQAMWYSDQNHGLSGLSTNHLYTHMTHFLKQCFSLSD
# Method notes: FRET-based FAP protease activity assay (human)
# Assay type: biochemical
# Parameters: purchased R&D systems 3715-SE
# Conditions: FRET-peptide substrate, 37°C, read-out: pIC50 (Activity) (converted)
Experimental readout: IC50

Observe how each entry below is paired with its result.
[
  {
    "Smiles repr": "Cc1cc2nccc(C(=O)NCC(=O)N3CC(F)(F)C[C@H]3C#N)c2cc1-c1ccc(S(C)(=O)=O)cc1",
    "Experimental system": "Human recombinant FAP (Homo sapiens, UniProt Q12884)",
    "IC50": "0.501 nM"
  },
  {
    "Smiles repr": "Cc1c(-c2ccc(S(C)(=O)=O)cc2)ccc2nccc(C(=O)NCC(=O)N3CC(F)(F)C[C@H]3C#N)c12",
    "Experimental system": "Human recombinant FAP (Homo sapiens, UniProt Q12884)",
    "IC50": "0.501 nM"
  },
  {
    "Smiles repr": "N#C[C@@H]1CCCN1C(=O)CNC(=O)c1ccnc2cc(-c3ccc(C(=O)O)cc3)ccc12",
    "Experimental system": "Human recombinant FAP (Homo sapiens, UniProt Q12884)",
    "IC50": "2 nM"
  }
]

From here, focus on the item given below.
If you can, please state the reported IC50 value of O=C(NCC(=O)N1CCC[C@H]1C(=O)c1ncn[nH]1)c1ccnc2ccccc12 .
63.1 nM

---

# Experimental system: HEK-FAP cells (Homo sapiens, UniProt Q12884)
# Construct: expressed in transfected cells; host or cells: HEK293
# Method notes: LigandTracer assay with 111In-labeled compounds
# Type: binding
# Conditions: 111In-labeled compound
Below, each entry is listed alongside its reported pKD.

Observe how each entry below is paired with its result.
[
  {
    "Compound": "CN(CCCN1CCN(C(=O)CN2CCN(CC(=O)O)CCN(CC(O)O)CCN(CC(=O)O)CC2)CC1)c1ccc2nccc(C(=O)NCC(=O)N3CC(F)(F)C[C@H]3C#N)c2c1 [Compound 3BP-4200, reference compound]",
    "pKD": "10.4 ± 0.0"
  },
  {
    "Compound": "O=C(O)CN1CCN(CC(=O)O)CCN(CC(=O)N2CCN(CCNC(=O)c3ccc(-c4ccc5nccc(C(=O)NCC(=O)N6CCC[C@H]6C(=O)c6nc7ccccc7o6)c5c4)cc3)CC2)CCN(CC(=O)O)CC1",
    "pKD": "9.8 ± 0.7"
  },
  {
    "Compound": "O=C(O)CN1CCN(CC(=O)O)CCN(CC(=O)N2CCN(CCNC(=O)c3ccc(-c4ccc5nccc(C(=O)NCC(=O)N6C[C@@H](F)C[C@H]6C(=O)c6nc7ccccc7o6)c5c4)cc3)CC2)CCN(CC(=O)O)CC1",
    "pKD": "8.5 ± 0.1"
  },
  {
    "Compound": "O=C(O)CN1CCN(CC(=O)O)CCN(CC(=O)N2CCN(CCNC(=O)c3cccc(-c4ccc5c(C(=O)NCC(=O)N6CCC[C@H]6C(=O)c6nc7ccccc7o6)ccnc5c4)c3)CC2)CCN(CC(=O)O)CC1",
    "pKD": "10.3 ± 0.1"
  },
  {
    "Compound": "O=C(O)CN1CCN(CC(=O)O)CCN(CC(=O)N2CCN(CCCOc3ccc4nccc(C(=O)NCC(=O)N5CCC[C@H]5C(=O)c5nc6ccccc6o5)c4c3)CC2)CCN(CC(=O)O)CC1",
    "pKD": "8.2 ± 0.0"
  }
]

If you can, please state the reported pKD value of O=C(O)CN1CCN(CC(=O)O)CCN(CC(=O)N2CCN(CCNC(=O)c3ccc(-c4ccc5nccc(C(=O)NCC(=O)N6CCC[C@H]6C(=O)c6nc7ccccc7o6)c5c4)cn3)CC2)CCN(CC(=O)O)CC1 .
8.3 ± 0.2
